// provenance: the supplement of paper PMC10307832

Test system: BEN
procedure.text: relative viability (nuclei count vs DMSO), 5 days (fraction); higher = more cells survive
study.conditions: first compound 0.8 µM
relative viability for assorted molecules

{"molecule": "Nc1cccc2c1CN(C1CCC(=O)NC1=O)C2=O (stereo unspecified) [Lenalidomide] + COc1cc2c(Oc3ccc(NC(=O)C4(C(=O)Nc5ccc(F)cc5)CC4)cc3F)ccnc2cc1OCCCN1CCOCC1 [Foretinib] (partner 0.25 µM)", "relative viability": 0.583}
{"molecule": "Nc1cccc2c1CN(C1CCC(=O)NC1=O)C2=O (stereo unspecified) [Lenalidomide] + Cc1cc(Nc2cc(N3CCN(C)CC3)nc(Sc3ccc(NC(=O)C4CC4)cc3)n2)n[nH]1 [Tozasertib] (partner 0.1 µM)", "relative viability": 0.462}
{"molecule": "Nc1cccc2c1CN(C1CCC(=O)NC1=O)C2=O (stereo unspecified) [Lenalidomide] + Nc1ncn([C@H]2C[C@H](O)[C@@H](CO)O2)c(=O)n1 [Decitabine] (partner 2 µM)", "relative viability": 0.635}
{"molecule": "Nc1cccc2c1CN(C1CCC(=O)NC1=O)C2=O (stereo unspecified) [Lenalidomide] + CC1(C)CCC(c2ccc(Cl)cc2)=C(CN2CCN(c3ccc(C(=O)NS(=O)(=O)c4ccc(N[C@H](CCN5CCOCC5)CSc5ccccc5)c(S(=O)(=O)C(F)(F)F)c4)cc3)CC2)C1 [Navitoclax] (partner 0.5 µM)", "relative viability": 0.0573}
{"molecule": "Nc1cccc2c1CN(C1CCC(=O)NC1=O)C2=O (stereo unspecified) [Lenalidomide] + NC(=O)Nc1cc(-c2cccc(F)c2)sc1C(=O)N[C@H]1CCCNC1 [AZD7762] (partner 0.2 µM)", "relative viability": 0.503}
{"molecule": "Nc1cccc2c1CN(C1CCC(=O)NC1=O)C2=O (stereo unspecified) [Lenalidomide] + C[C@]1(O)C[C@@H](c2nc(-c3ccc4ccc(-c5ccccc5)nc4c3)c3c(N)nccn32)C1 [Linsitinib] (partner 1 µM)", "relative viability": 0.861}

---

Tested on: NCI-H2023
procedure.text: relative viability (nuclei count vs DMSO), 5 days (fraction); higher = more cells survive
study.conditions: first compound 0.6325 µM
relative viability for assorted compounds

{"compound": "Cc1csc(=NC2CCCCC2)n1/N=C/c1ccc(O)c(O)c1O [MIM1] + O=C(CCCCCCC(=O)Nc1ccccc1)NO [Vorinostat] (partner 1 µM)", "relative viability": 0.58}
{"compound": "Cc1csc(=NC2CCCCC2)n1/N=C/c1ccc(O)c(O)c1O [MIM1] + CC1(C)CCC(c2ccc(Cl)cc2)=C(CN2CCN(c3ccc(C(=O)NS(=O)(=O)c4ccc(N[C@H](CCN5CCOCC5)CSc5ccccc5)c(S(=O)(=O)C(F)(F)F)c4)cc3)CC2)C1 [Navitoclax] (partner 0.5 µM)", "relative viability": 1.03}

---

Test system: NCI-H1395
procedure.text: relative viability (nuclei count vs DMSO), 5 days (fraction); higher = more cells survive
study.conditions: first compound 0.006325 µM
// assign class 1 if relative viability falls strictly below 0.7, else class 0 (ties count as class 0)

{"compound": "CCNC(=O)c1noc(-c2cc(C(C)C)c(O)cc2O)c1-c1ccc(CN2CCOCC2)cc1 [Luminespib] + N=C(N)NC(=N)NCCc1ccccc1 [Phenformin] (partner 250 µM)", "tested.target": "NCI-H1395", "class.assignment": "class 1"}
{"compound": "CCNC(=O)c1noc(-c2cc(C(C)C)c(O)cc2O)c1-c1ccc(CN2CCOCC2)cc1 [Luminespib] + C[C@]1(O)C[C@@H](c2nc(-c3ccc4ccc(-c5ccccc5)nc4c3)c3c(N)nccn32)C1 [Linsitinib] (partner 1 µM)", "tested.target": "NCI-H1395", "class.assignment": "class 0"}
{"compound": "CCNC(=O)c1noc(-c2cc(C(C)C)c(O)cc2O)c1-c1ccc(CN2CCOCC2)cc1 [Luminespib] + NC(=O)Nc1cc(-c2cccc(F)c2)sc1C(=O)N[C@H]1CCCNC1 [AZD7762] (partner 0.2 µM)", "tested.target": "NCI-H1395", "class.assignment": "class 1"}
{"compound": "CCNC(=O)c1noc(-c2cc(C(C)C)c(O)cc2O)c1-c1ccc(CN2CCOCC2)cc1 [Luminespib] + COc1cccc2cc(-c3nc([C@H]4CC[C@H](C(=O)O)CC4)n4ncnc(N)c34)[nH]c12 [OSI-027] (partner 0.5 µM)", "tested.target": "NCI-H1395", "class.assignment": "class 1"}
{"compound": "CCNC(=O)c1noc(-c2cc(C(C)C)c(O)cc2O)c1-c1ccc(CN2CCOCC2)cc1 [Luminespib] + Nc1nc2[nH]cc(CCc3ccc(C(=O)N[C@@H](CCC(=O)O)C(=O)O)cc3)c2c(=O)[nH]1 [Pemetrexed] (partner 0.2 µM)", "tested.target": "NCI-H1395", "class.assignment": "class 0"}
{"compound": "CCNC(=O)c1noc(-c2cc(C(C)C)c(O)cc2O)c1-c1ccc(CN2CCOCC2)cc1 [Luminespib] + CS(=O)(=O)CCNCc1ccc(-c2ccc3ncnc(Nc4ccc(OCc5cccc(F)c5)c(Cl)c4)c3c2)o1 [Lapatinib] (partner 2 µM)", "tested.target": "NCI-H1395", "class.assignment": "class 0"}
